System: Vero E6 infected with SARS-CoV-2
Assay: inhibition of SARS-CoV-2 cytopathic effect; higher = more antiviral protection, active = above 15
Conditions: 833.33 nM; 48 h
attribute_measured: inhibition of SARS-CoV-2 cytopathic effect (%)

| compound | target_or_test_system | quantitative_result |
| --- | --- | --- |
| C[C@H]1C[C@H]2[C@@H]3CCC4=CC(=O)C=C[C@]4(C)[C@H]3C(=O)C[C@]2(C)[C@@]1(O)C(=O)CO | Vero E6 infected with SARS-CoV-2 | 0.12 |
| CO[C@H]1/C=C/O[C@@]2(C)Oc3c(C)c(O)c4c(O)c(c(/C=N/N=C/N5CCCCC5)c(O)c4c3C2=O)NC(=O)/C(C)=C\C=C\[C@H](C)[C@H](O)[C@@H](C)[C@@H](O)[C@@H](C)[C@H](OC(C)=O)[C@@H]1C | Vero E6 infected with SARS-CoV-2 | 4.61 |
| CC1(C)OC[C@H](NC(=O)Nc2ccc(Br)cc2Br)[C@H](c2ccccc2)O1 | Vero E6 infected with SARS-CoV-2 | -3.68 |
| Nc1nc(F)nc2c1ncn2[C@@H]1O[C@H](CO)[C@@H](O)[C@@H]1O | Vero E6 infected with SARS-CoV-2 | 1.66 |
| COc1nc(N)nc2c1ncn2[C@@H]1O[C@H](CO)[C@@H](O)[C@@H]1O | Vero E6 infected with SARS-CoV-2 | -0.9 |
| O=C(NCCN1CCC2(CC1)C(=O)NCN2c1cccc(F)c1)c1ccc(F)c(F)c1 | Vero E6 infected with SARS-CoV-2 | 1.22 |
| O=C(OCC(O)CO)c1ccccc1Nc1ccnc2c(C(F)(F)F)cccc12 (stereo unspecified) | Vero E6 infected with SARS-CoV-2 | 3.08 |
| COc1ccc(S(=O)(=O)N2c3ccc(Cl)cc3[C@](O)(c3ccccc3Cl)[C@@H]2C(=O)N2CCC[C@H]2C(N)=O)cc1OC | Vero E6 infected with SARS-CoV-2 | 1.63 |
| CNc1ncc2cc(-c3cc(NC(=O)NCCC(C)(C)C)c(F)cc3C)c(C)nc2n1 | Vero E6 infected with SARS-CoV-2 | -4.43 |
| CC(=O)N1CC[N+](C)(C)CC1 | Vero E6 infected with SARS-CoV-2 | 1.13 |
| COc1cc(C[C@H]2c3cc(OC)c(OC)cc3CCN2C)c(Oc2cc3c(cc2OC)-c2c(OC)c(OC)cc4c2[C@H](C3)N(C)CC4)cc1OC | Vero E6 infected with SARS-CoV-2 | 3.94 |
| c1ccc2c(Oc3nc(Nc4ccc(N5CCOCC5)cc4)c4ncn(C5CCCCC5)c4n3)cccc2c1 | Vero E6 infected with SARS-CoV-2 | 2.43 |
| CC(CN(C)C)C(C)(O)Cc1ccc(Cl)cc1 (stereo unspecified) | Vero E6 infected with SARS-CoV-2 | -3.1 |
| CC1(C)CCC(C)(C)c2cc(C3(c4ccc(C(=O)O)cc4)OCCO3)ccc21 | Vero E6 infected with SARS-CoV-2 | -0.7 |
| CCN(CC)CCN(Cc1ccc(-c2ccc(C(F)(F)F)cc2)cc1)C(=O)Cn1c(SCc2ccc(F)cc2)nc(=O)c2c1CCC2 | Vero E6 infected with SARS-CoV-2 | -2.02 |
| CCC(C)(C)C(=O)C(=O)N1CCC[C@H]1C(=O)OCCCc1cccnc1 | Vero E6 infected with SARS-CoV-2 | -0.32 |
| Cc1ccccc1C(=O)c1ccc(Nc2ccc(Br)cc2N)cc1Cl | Vero E6 infected with SARS-CoV-2 | -0.22 |
| C=CCN1CCc2cc(O)c(O)cc2[C@H](c2ccccc2)C1 | Vero E6 infected with SARS-CoV-2 | 0.44 |
| O=[N+]([O-])c1ccccc1S(=O)(=O)NCC1CCC(CNC[C@H]2CCc3ccccc3C2)CC1 (stereo partly specified) | Vero E6 infected with SARS-CoV-2 | -4.04 |
| Cc1ccc(S(=O)(=O)c2ccc([N+](=O)[O-])o2)cc1 | Vero E6 infected with SARS-CoV-2 | 13.5 |
| Nc1n[nH]c2nc3ccccc3nc12 | Vero E6 infected with SARS-CoV-2 | 0.94 |
| CC(C)(C)C(=O)OCOC(=O)[C@@H]1N2C(=O)[C@@H](NC(=O)[C@H](N)c3ccccc3)[C@H]2SC1(C)C | Vero E6 infected with SARS-CoV-2 | 0.64 |
| CCCCCCCCCCCCC[N+](C)(C)Cc1ccccc1 | Vero E6 infected with SARS-CoV-2 | 1.78 |
| Nc1nccc2c1ncn2[C@@H]1O[C@H](CO)[C@@H](O)[C@@H]1O | Vero E6 infected with SARS-CoV-2 | -0.63 |
| COc1c(C)cnc(Cn2cnc3c(Cl)nc(N)nc32)c1C | Vero E6 infected with SARS-CoV-2 | 3.31 |
| CS(=O)(=O)CCNCc1ccc(-c2ccc3ncnc(Nc4ccc(OCc5cccc(F)c5)c(Cl)c4)c3c2)o1 | Vero E6 infected with SARS-CoV-2 | -11.4 |
| CC(=O)Nc1ccc(C(=O)NC(C)(C)C)cc1 | Vero E6 infected with SARS-CoV-2 | -3.41 |
| O=C(Cc1ccc(Cl)c(Cl)c1)N1CCCC[C@@H]1CN1CCCC1 | Vero E6 infected with SARS-CoV-2 | -0.63 |
| CCOC(=O)c1ccc(N)cc1 | Vero E6 infected with SARS-CoV-2 | -4.68 |
| CS(=O)(=O)Nc1ccc(Cc2noc(-c3ccc4[nH]cc(CCN)c4c3)n2)cc1 | Vero E6 infected with SARS-CoV-2 | -1.18 |
| O=C(O)c1ccccc1NCCc1ccccc1 | Vero E6 infected with SARS-CoV-2 | 1.39 |

----------
Test system: Vero E6 infected with SARS-CoV-2
Experiment: morphology score (similarity to uninfected cells); higher = more like uninfected cells
Details: 24 h
Measured morphology score, listed per entry for reference.
attribute_measured: morphology score

| molecule | target_or_test_system | quantitative_result |
| --- | --- | --- |
| CCN(CC)CC#CCOC(=O)C(O)(c1ccccc1)C1CCCCC1 (stereo not given) [oxybutynin] (10 µM) | Vero E6 infected with SARS-CoV-2 | 0.299 |
| C[n+]1ccccc1C=NO [pralidoxime] (10 µM) | Vero E6 infected with SARS-CoV-2 | -0.226 |
| O=c1c(-c2ccc(O)cc2)coc2cc(O)cc(O)c12 [genistein] (10 µM) | Vero E6 infected with SARS-CoV-2 | -0.211 |
| COCCN1CCC(C(=O)NO)(S(=O)(=O)c2ccc(Oc3ccc(OC(F)(F)F)cc3)cc2)CC1 (10 µM) | Vero E6 infected with SARS-CoV-2 | 0.0474 |
| NNCCc1ccccc1 [phenelzine] (10 µM) | Vero E6 infected with SARS-CoV-2 | 0.113 |

----------
System: Vero E6 infected with SARS-CoV-2
Experiment: inhibition of SARS-CoV-2 cytopathic effect; higher = more antiviral protection, active = above 15
Details: 1 nM; 48 h
inhibition of SARS-CoV-2 cytopathic effect for assorted molecules
attribute_measured: inhibition of SARS-CoV-2 cytopathic effect (%)

| molecule | quantitative_result |
| --- | --- |
| Cn1ncc(Cl)c1-c1cc(C(=O)N[C@H](CN)Cc2ccc(F)c(F)c2)oc1Cl [uprosertib] | -2.98 |
| O=C(Oc1cccc2cccnc12)c1ccccc1 [benzoxiquine] | 1.28 |
| Cc1cccc(C)c1NC(=O)CC12CCCN1CCC2 [pilsicainide] | 0.34 |
| CN1C(=O)C[C@@H](C(=O)N[C@@H](Cc2c[nH]cn2)C(=O)N2CCC[C@H]2C(N)=O)NC1=O [taltirelin] | 1.73 |
| Cc1csc(NC(=O)CSc2ccc(-c3ccccc3)nn2)n1 | 6.45 |
| Cc1c(OCC(F)(F)F)ccnc1C[S+]([O-])c1nc2ccccc2[nH]1 (stereo not drawn) [lansoprazole] | 3.22 |
| CO/N=C1/C[C@@H](C(=O)NC[C@@H](O)c2ccccc2)N(C(=O)c2ccc(-c3ccccc3C)cc2)C1 [OT-R-antagonist-1] | -0.95 |
| CN(C)CCOC(c1ccccc1)c1ccccc1.Cn1c(=O)c2[nH]c(Cl)nc2n(C)c1=O [dimenhydrinate] | 1.11 |
| COC(=O)c1ccccc1O [methyl-salicylate] | 0.7 |
| c1ccc(CNc2ncnc3[nH]cnc23)cc1 [6-benzylaminopurine] | 0.87 |
| Cc1c(CC(C)(C)C(=O)O)n(Cc2ccc(Cl)cc2)c2ccc(F)cc12 | 3.46 |
| CCC1(c2ccccc2)C(=O)NCNC1=O [primidone] | 0.5 |
| O=C(O)CCC(=O)C(=O)O [2-oxoglutaric-acid] | -3.15 |

----------
System: Vero E6 infected with SARS-CoV-2
Assay: inhibition of SARS-CoV-2 cytopathic effect; higher = more antiviral protection, active = above 15
Conditions: 100 nM; 48 h
Measured inhibition of SARS-CoV-2 cytopathic effect, listed per entry.
attribute_measured: inhibition of SARS-CoV-2 cytopathic effect (%)

| molecule | result_units | quantitative_result |
| --- | --- | --- |
| O=C(COc1ccc(Cl)cc1)N[C@H]1CC[C@H](NC(=O)COc2ccc(Cl)cc2)CC1 | % | 3.35 |
| Cc1ccc(NCCCc2ccccc2)c(N)c1 | % | -1.32 |
| CS(=O)(=O)N1CCc2c(-c3cnc(N)nc3)nc(N3CCOCC3)nc21 | % | 1.27 |
| CCCCCOC(=O)Nc1nc(=O)n([C@@H]2O[C@H](C)[C@@H](O)[C@H]2O)cc1F | % | -1.36 |
| CC(CCc1ccc(O)cc1)NCCc1ccc(O)c(O)c1 (stereo not given) | % | -1.12 |
